B1: ZNF449 (parent)
chain: TLHQRTHTEERPFKCNYCGKSFRQ

Variants of: B1
Assay: protein stability index of a GFP-peptide fusion (GPS, HEK-293T) (PSI 1-6); higher = more stable;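 further: lentivirally expressed fusions sorted by FACS into six bins by GFP to DsRed ratio, PSI derived from sequencing read proportions per bin multiplied by bin number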
Details: c terminus: a fixed tail appended
observationType: protein stability index
Respond using a number only.

Given item P12D , the value recorded as its protein stability index is 3.12

In plain terms, F22V has a documented protein stability index of 3.59

Kindly note the recorded protein stability index for E10C , which is 1.74

Reported protein stability index of G19N : 2.48

What the record says about H3D : protein stability index is 2.62

Per the records, this variant ( F22W ) has protein stability index equal to 1.74

E9G yielded protein stability index of 2.97

Reported protein stability index for G19Y was 2.7

The variant listed as H3M shows protein stability index equal to 2.25

Recorded result, F22G , protein stability index: 2.35

The reported value for L2D in terms of protein stability index is 2.77

N16M has a reported protein stability index of 2.1

Entry C18A — recorded protein stability index = 3.61

The measured protein stability index associated with R23W reads 2.29

Entry K14D — recorded protein stability index = 2.41

Given item L2Q , the value recorded as its protein stability index is 2.41

# protein stability index of R23E = 3.53

Measured protein stability index, H7M : 2.29

According to the records, this variant F22T displays protein stability index of 2.49

The reported protein stability index of the variant P12H was 2.32

For reference, reported protein stability index for Q24L stands at 2.36

The recorded protein stability index for E10L is 1.55

protein stability index in this record for Q4K : 2.94

What the record says about C15W : protein stability index is 2.59

get_value(item= H3T , readout=protein stability index) returns 2.42

The recorded protein stability index for P12E is 3.26

The reported protein stability index of the variant T1Y was 2.01

According to the records, this variant P12F displays protein stability index of 2.25

Measured protein stability index of L2G : 3.08

# variant R11M ; its protein stability index = 2.25

Sample H7D ; protein stability index observed: 2.65

Looking up C18P , I found its protein stability index recorded as 2.91

Entry Y17K — recorded protein stability index = 2.67

Per the record, L2S has protein stability index of 2.7

Recorded protein stability index (variant R11Y ): 2.11

Memo: Q24G , reported protein stability index: 2.62

Kindly note the recorded protein stability index for T1R , which is 2.02

Sample R11V ; protein stability index observed: 2.54

# variant F13P ; its protein stability index = 2.24

Sure, the documented protein stability index for R23K is 2.97

The recorded protein stability index for E10T is 2.25

Memo: F13L , reported protein stability index: 2.07

Documented protein stability index of Y17L : 2.15

# protein stability index (variant: E9V ) is 1.76

R23G has a reported protein stability index of 2.27

For Q4S the variant record lists protein stability index as 2.12

Value source: the supplement of paper PMC10567573
